Quick reference for pIC50 among some molecules
# SYSTEM: C-C chemokine receptor type 4 (Homo sapiens)
# Sequence (P51679 whole entry): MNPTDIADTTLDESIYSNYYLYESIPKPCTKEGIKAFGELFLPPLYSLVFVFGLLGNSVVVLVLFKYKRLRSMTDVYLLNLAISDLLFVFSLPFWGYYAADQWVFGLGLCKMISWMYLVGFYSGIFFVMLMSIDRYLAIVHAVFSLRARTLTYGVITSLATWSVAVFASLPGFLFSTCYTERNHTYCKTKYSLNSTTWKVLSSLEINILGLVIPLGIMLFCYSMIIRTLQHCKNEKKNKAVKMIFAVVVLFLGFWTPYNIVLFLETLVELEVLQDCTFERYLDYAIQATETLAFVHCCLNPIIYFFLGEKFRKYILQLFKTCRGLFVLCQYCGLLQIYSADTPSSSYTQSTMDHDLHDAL
# METHOD_SUMMARY: Antagonist activity at recombinant human CCR4 expressed in CHO-K1 cells assessed as inhibition of CCL22 induced Ca2+ mobilization after 2 hrs by FMAT based fluorescence assay
# Assay type: functional, cell-based
Just so you know, pIC50 here is -log10 of the concentration in molar units; reply with that number alone.

As a guide, the following entries are already answered.
Look up pIC50 for this molecule: `COc1nc(Cl)cnc1NS(=O)(=O)c1cccc(C(F)(F)F)c1Cl`
7.20

Consider the molecule `CC(C)(C)COc1nc(Cl)cnc1NS(=O)(=O)c1cccc(Cl)c1Cl` and give its measured pIC50.
5.10

So what's the measured pIC50 for this one? `COc1nccnc1NS(=O)(=O)c1cccc(Cl)c1Cl`
7.80

Need pIC50 of `COc1nc(Cl)cnc1NS(=O)(=O)c1ccnc(Cl)c1Cl` , thanks.
5.00

// query pIC50 value for entry `CCOc1nc(Br)cnc1NS(=O)(=O)c1ccc(Cl)s1`
6.70

Further cases:
// query pIC50 value for entry `O=S(=O)(Nc1ncc(Cl)nc1OCc1cccnc1)c1cccc(Cl)c1Cl`
9.20

Endpoint output: pIC50 of `COc1nc(F)cnc1NS(=O)(=O)c1cccc(Cl)c1Cl` . Value?
8.60

* * *

Each entry below lists one item and its recorded fraction unbound value.
# METHOD_SUMMARY: Protein binding in human plasma
# Assay type: ADME, cell-free
# CONDITION_PARAMETERS: read-out: PPB (converted)

Report fraction unbound for `COc1nc(CO)c(C)nc1NS(=O)(=O)c1cccc(Cl)c1Cl` please.
0.013

Please report the recorded fraction unbound for `COc1ncc(F)nc1NS(=O)(=O)c1cccc(Cl)c1Cl` .
< 0.002

Any idea what its fraction unbound is? The molecule is `COc1nc(F)cnc1NS(=O)(=O)c1cccc(Cl)c1Cl`
0.006

Form field: reported fraction unbound of `COc1nc(Br)cnc1NS(=O)(=O)c1ccc(Cl)s1`
< 0.001

New cases:
// returns reported fraction unbound for input `O=S(=O)(Nc1ncc(Cl)nc1OCc1cncnc1)c1cccc(Cl)c1Cl`
< 0.001

Quick one: fraction unbound of `O=S(=O)(Nc1ncc(Cl)nc1OCc1ccccc1CO)c1cccc(Cl)c1Cl` ?
< 0.001

# lookup: fraction unbound of `O=S(=O)(Nc1ncc(Cl)nc1OCc1cccc(Br)c1)c1cccc(Cl)c1Cl`
< 0.001

* * *

# SYSTEM: UniProt:P51679
# Sequence (P51679 whole entry): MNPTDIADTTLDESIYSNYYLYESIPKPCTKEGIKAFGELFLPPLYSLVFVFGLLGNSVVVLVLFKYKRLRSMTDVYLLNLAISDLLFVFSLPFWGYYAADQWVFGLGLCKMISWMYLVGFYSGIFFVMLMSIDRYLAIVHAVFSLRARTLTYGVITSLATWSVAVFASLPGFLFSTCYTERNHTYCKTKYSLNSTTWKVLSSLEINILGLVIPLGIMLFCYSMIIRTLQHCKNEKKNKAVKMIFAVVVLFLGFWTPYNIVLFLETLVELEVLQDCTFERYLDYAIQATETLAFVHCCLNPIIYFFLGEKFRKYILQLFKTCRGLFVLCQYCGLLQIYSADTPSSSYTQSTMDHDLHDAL
# METHOD_SUMMARY: Antagonist activity at recombinant human CCR4 expressed in CHO-K1 cells assessed as inhibition of CCL22 induced Ca2+ mobilization after 2 hrs by FMAT based fluorescence assay
# Format: functional, cell-based
Entries are sorted into classes by IC50 as follows: bucket 1 = under 20 nM, bucket 2 = from 20 nM up to 200 nM, bucket 3 = 200 nM and over

For this molecule, which bin applies? `COc1nc(Br)cnc1NS(=O)(=O)c1ccccc1Cl`
bucket 2

---
Category of `COc1nc(Br)cnc1NS(=O)(=O)c1cc(Cl)c(Cl)s1` , please.
bucket 3

Place this molecule in its band: `CCOc1cnc(NS(=O)(=O)c2cccc(Cl)c2Cl)c(OC)n1`
bucket 1

Hi, small favor: classify `COc1nc(Br)cnc1NS(=O)(=O)c1ccccc1` by its IC50 when you get a moment.
bucket 3

Record `COc1nc(Br)cnc1NS(=O)(=O)c1ccc(Cl)cc1Cl` — which class?
bucket 2

Form: Item = `COc1nc(Br)cnc1NS(=O)(=O)c1cc(Cl)ccc1Cl` ; Class = ?
bucket 3

* * *

# METHOD_SUMMARY: Protein binding in human plasma
# Assay type: ADME, cell-free
# CONDITION_PARAMETERS: read-out: PPB (converted)
QUANTITY_KIND: fraction unbound
Please give only the number in your answer, with no unit.

Look over these answered cases.
Please report the recorded fraction unbound for `COc1nc(CO)cnc1NS(=O)(=O)c1cccc(Cl)c1Cl` .
0.038

Give the measured fraction unbound of `COc1nc(CO)c(Cl)nc1NS(=O)(=O)c1cccc(Cl)c1Cl` .
0.004

Turning now to a further compound:
Item `COc1nccnc1NS(=O)(=O)c1cccc(Cl)c1Cl` has what recorded fraction unbound?
0.011

* * *

// reported pIC50 per item
# SYSTEM: C-C chemokine receptor type 4 (Homo sapiens, UniProt P51679)
# METHOD_SUMMARY: Antagonist activity at recombinant human CCR4 expressed in CHO-K1 cells assessed as inhibition of CCL22 induced Ca2+ mobilization after 2 hrs by FMAT based fluorescence assay
# Type: functional, cell-based
Scale: pIC50 equals -log10([C]), with [C] in mol/L.

Notebook: pull reported pIC50 for C-C chemokine receptor type 4 (Homo sapiens, UniProt P51679), entry `C=CCOc1nc(Cl)cnc1NS(=O)(=O)c1cccc(Cl)c1Cl`
7.80

Tell me reported pIC50 for `COc1nc(C)cnc1NS(=O)(=O)c1cccc(Cl)c1Cl` , tested with C-C chemokine receptor type 4 (Homo sapiens, UniProt P51679).
7.40

Tell me reported pIC50 for `COc1ncc(Cl)nc1NS(=O)(=O)c1cccc(Cl)c1Cl` , tested with C-C chemokine receptor type 4 (Homo sapiens, UniProt P51679).
8.10

Tell me reported pIC50 for `COc1nc(Br)cnc1NS(=O)(=O)c1ccsc1` , tested with C-C chemokine receptor type 4 (Homo sapiens, UniProt P51679).
5.90

I'm curious: which pIC50 was measured for `COc1nc(F)c(F)nc1NS(=O)(=O)c1cccc(Cl)c1Cl` tested on C-C chemokine receptor type 4 (Homo sapiens, UniProt P51679)?
9.00

Find the measured pIC50: item `COc1nc(Br)cnc1NS(=O)(=O)c1cccc(Cl)c1Cl` , target or system C-C chemokine receptor type 4 (Homo sapiens, UniProt P51679).
8.00

Report pIC50 for `O=S(=O)(Nc1ncc(Cl)nc1OCc1cncnc1)c1cccc(Cl)c1Cl` tested on C-C chemokine receptor type 4 (Homo sapiens, UniProt P51679).
7.90

Request - read-out pIC50 | tested on C-C chemokine receptor type 4 (Homo sapiens, UniProt P51679) | compound `C#CCOc1nc(Cl)cnc1NS(=O)(=O)c1cccc(Cl)c1Cl`
8.60

Can you look up pIC50 on C-C chemokine receptor type 4 (Homo sapiens, UniProt P51679) for `CCCCS(=O)(=O)Nc1ncc(Cl)nc1OC` ?
5.50

Can you look up pIC50 on C-C chemokine receptor type 4 (Homo sapiens, UniProt P51679) for `COc1nc(Br)cnc1NS(=O)(=O)c1sc(Cl)cc1Br` ?
7.40

Request: pIC50, test system C-C chemokine receptor type 4 (Homo sapiens, UniProt P51679), entry `COc1nc(Cl)cnc1NS(=O)(=O)c1cccc(Cl)c1C#N`
7.20

Form field - read-out: pIC50; system: C-C chemokine receptor type 4 (Homo sapiens, UniProt P51679); submitted item: `COc1nc(Br)cnc1NS(=O)(=O)c1ccc(Cl)s1`
7.20

Item `COc1nc(Cl)cnc1NS(=O)(=O)c1cccc(F)c1Cl` with C-C chemokine receptor type 4 (Homo sapiens, UniProt P51679) - pIC50?
7.80

API: value(readout=pIC50, system=C-C chemokine receptor type 4 (Homo sapiens, UniProt P51679)) for record `COc1nc(Br)cnc1NS(=O)(=O)c1ccc(Cl)c(Cl)c1`
6.70

GET /values?readout=pIC50&system=C-C chemokine receptor type 4 (Homo sapiens, UniProt P51679)&item= `COc1nc(Br)cnc1NS(=O)(=O)c1cccs1`
6.20

Please state recorded pIC50 (tested on C-C chemokine receptor type 4 (Homo sapiens, UniProt P51679)) of `COc1nc(Cl)cnc1NS(=O)(=O)c1scc(Cl)c1Cl`
8.10

Param readout = pIC50; param system = C-C chemokine receptor type 4 (Homo sapiens, UniProt P51679); param query = `COc1nc(Br)cnc1NS(=O)(=O)c1ccc(Cl)cc1` ; response: value
6.90

For the record `COc1nc(CO)c(Cl)nc1NS(=O)(=O)c1cccc(Cl)c1Cl` , what value of pIC50 is listed for C-C chemokine receptor type 4 (Homo sapiens, UniProt P51679)?
8.40

Query pIC50 on C-C chemokine receptor type 4 (Homo sapiens, UniProt P51679) for `COc1nc(Br)cnc1NS(=O)(=O)c1cc(Cl)cc(Cl)c1`
5.30

Could you share what pIC50 was measured for `CSc1nc(Br)cnc1NS(=O)(=O)c1ccc(Cl)s1` , tested on C-C chemokine receptor type 4 (Homo sapiens, UniProt P51679)?
5.50

Given the entry `COc1nc(Cl)cnc1NS(=O)(=O)c1cccc(Cl)c1F` , what pIC50 was observed with C-C chemokine receptor type 4 (Homo sapiens, UniProt P51679)?
7.10

Find the measured pIC50: item `COc1ncc(C)nc1NS(=O)(=O)c1cccc(Cl)c1Cl` , target or system C-C chemokine receptor type 4 (Homo sapiens, UniProt P51679).
7.30

Under C-C chemokine receptor type 4 (Homo sapiens, UniProt P51679): pIC50 value of `COc1nc(Cl)cnc1NS(=O)(=O)c1cccc(Cl)c1C` ?
7.70

Value wanted: pIC50 (C-C chemokine receptor type 4 (Homo sapiens, UniProt P51679)) of entry `COc1nc(CO)cnc1NS(=O)(=O)c1cccc(Cl)c1Cl`
7.60

So what pIC50 did `COc1nc(Br)cnc1NS(=O)(=O)c1c(Cl)cccc1Cl` get with C-C chemokine receptor type 4 (Homo sapiens, UniProt P51679)?
6.20

So what pIC50 did `COc1nc(Br)cnc1NS(=O)(=O)c1cccc(Cl)c1` get with C-C chemokine receptor type 4 (Homo sapiens, UniProt P51679)?
7.00

Missing value: pIC50, C-C chemokine receptor type 4 (Homo sapiens, UniProt P51679), entry `COc1nc(S(C)(=O)=O)cnc1NS(=O)(=O)c1cccc(Cl)c1Cl` . Fill in?
5.30
